# ASSAYED TARGET: hSA (Homo sapiens, UniProt P02768)
# Sequence (P02768 25-609): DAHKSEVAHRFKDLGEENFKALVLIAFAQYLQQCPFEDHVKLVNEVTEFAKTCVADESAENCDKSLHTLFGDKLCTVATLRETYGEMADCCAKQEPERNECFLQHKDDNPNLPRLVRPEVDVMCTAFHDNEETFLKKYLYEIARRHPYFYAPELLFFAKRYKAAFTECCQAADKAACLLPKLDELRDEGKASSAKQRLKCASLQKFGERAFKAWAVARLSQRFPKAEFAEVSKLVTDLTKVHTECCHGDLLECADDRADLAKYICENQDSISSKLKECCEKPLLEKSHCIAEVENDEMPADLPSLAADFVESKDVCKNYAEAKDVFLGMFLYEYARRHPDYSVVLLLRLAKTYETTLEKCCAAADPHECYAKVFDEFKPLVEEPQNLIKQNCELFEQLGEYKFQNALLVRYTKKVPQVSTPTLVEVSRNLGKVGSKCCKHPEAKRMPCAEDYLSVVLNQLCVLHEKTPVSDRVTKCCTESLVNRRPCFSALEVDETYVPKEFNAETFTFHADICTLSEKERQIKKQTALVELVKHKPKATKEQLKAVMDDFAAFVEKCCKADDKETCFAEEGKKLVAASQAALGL
# ASSAY OVERVIEW: hSA binding assay (hSA-coated microtiter plate, streptavidin-polyHRP/ABTS, OD 405 nm)
Recorded Binding, Exp 1 for the following sequences

Example cases with answers are listed next.
RLIADICPCLW [Compound 4, RLIADI-LW, "-" represents cysteine-proline-cysteine] = 0.03473
RFIEDICPCLW [Compound 8, RFIEDI-LW, "-" represents cysteine-proline-cysteine] = 0.04142
RLIQDICPCLW [Compound 18, RLIQDI-LW, "-" represents cysteine-proline-cysteine] = 0.06261
RLVEDICPCLW [Compound 20, RLVEDI-LW, "-" represents cysteine-proline-cysteine] = 0.06407

Binding, Exp 1 recorded for this sequence, RLIEDQCPCLW [Compound 16, RLIEDQ-LW, "-" represents cysteine-proline-cysteine] , is 0.06092

Binding, Exp 1 recorded for this sequence, KLIDDICPCLW [Compound 34, KLIDDI-LW, "-" represents cysteine-proline-cysteine] , is 0.1237

Binding, Exp 1 recorded for this sequence, RLIEDACPCLW [Compound 38, RLIEDA-LW, "-" represents cysteine-proline-cysteine] , is 0.1522

----------
# ASSAYED TARGET: hSA (Homo sapiens, UniProt P02768)
# ASSAY OVERVIEW: hSA binding assay (hSA-coated microtiter plate, streptavidin-polyHRP/ABTS, OD 405 nm)
RESULT TYPE: Binding, Exp 2
Give the figure by itself; no unit, no explanation.

Example cases with answers are listed next.
RQIEDICPCLW [Compound 2, RQIEDI-LW, "-" represents cysteine-proline-cysteine] = 0.2243
RIIEDICPCLW [Compound 40, RIIEDI-LW, "-" represents cysteine-proline-cysteine] = 0.1166
REIEDICPCLW [Compound 96, REIEDI-LW, "-" represents cysteine-proline-cysteine] = 0.2479

// below: Binding, Exp 2 requested for another sequence
Binding, Exp 2 recorded for this sequence, KLIVDICPCLW [Compound 95, KLIVDI-LW, "-" represents cysteine-proline-cysteine] , is 0.1395

----------
# ASSAYED TARGET: hSA (Homo sapiens, UniProt P02768)
# ASSAY OVERVIEW: hSA binding assay (hSA-coated microtiter plate, streptavidin-polyHRP/ABTS, OD 405 nm)
RESULT TYPE: Binding, Exp 1
Give the figure by itself; no unit, no explanation.

Example cases with answers are listed next.
KLIEDICPCLH [Compound 23, KLIEDI-LH, "-" represents cysteine-proline-cysteine] = 0.07161
KLIEDICPCLK [Compound 21, KLIEDI-LK, "-" represents cysteine-proline-cysteine] = 0.06947
RLIEDVCPCLW [Compound 54, RLIEDV-LW, "-" represents cysteine-proline-cysteine] = 0.3336
KLTEDICPCLW [Compound 24, KLTEDI-LW, "-" represents cysteine-proline-cysteine] = 0.07352

// below: Binding, Exp 1 requested for another sequence
Binding, Exp 1 recorded for this sequence, KLIEDECPCLW [Compound 11, KLIEDE-LW, "-" represents cysteine-proline-cysteine] , is 0.04808

----------
# ASSAYED TARGET: hSA (Homo sapiens, UniProt P02768)
# ASSAY OVERVIEW: hSA binding assay (hSA-coated microtiter plate, streptavidin-polyHRP/ABTS, OD 405 nm)
# CONDITION NOTES: given only for compounds with an Exp 2 value
RESULT TYPE: Bmax

Example cases with answers are listed next.
LKIKDICPCLW [Compound 94, LKIKDI-LW, "-" represents cysteine-proline-cysteine] = 1.253
RQIEDICPCLW [Compound 2, RQIEDI-LW, "-" represents cysteine-proline-cysteine] = 1.232
KLIQDICPCLW [Compound 51, KLIQDI-LW, "-" represents cysteine-proline-cysteine] = 1.048

// below: Bmax requested for another sequence
Bmax recorded for this sequence, RLIVDICPCLW [Compound 12, RLIVDI-LW, "-" represents cysteine-proline-cysteine] , is 1.002

----------
# ASSAYED TARGET: hSA (Homo sapiens, UniProt P02768)
# ASSAY OVERVIEW: hSA binding assay (hSA-coated microtiter plate, streptavidin-polyHRP/ABTS, OD 405 nm)
RESULT TYPE: Binding, Exp 1
Give the figure by itself; no unit, no explanation.

Example cases with answers are listed next.
KLIQDICPCLW [Compound 51, KLIQDI-LW, "-" represents cysteine-proline-cysteine] = 0.3066
KLIEDICPCAW [Compound 25, KLIEDI-AW, "-" represents cysteine-proline-cysteine] = 0.08281
KFIEDICPCLW [Compound 13, KFIEDI-LW, "-" represents cysteine-proline-cysteine] = 0.04979
RLIEDICPCFW [Compound 10, RLIEDI-FW, "-" represents cysteine-proline-cysteine] = 0.04544

// below: Binding, Exp 1 requested for another sequence
RLIEDICPCVW [Compound 52, RLIEDI-VW, "-" represents cysteine-proline-cysteine] tested on hSA (Homo sapiens, UniProt P02768) gave Binding, Exp 1: 0.3108
